Ref: patent US20240425606A1

Biological target: T1, human IL-11Rα (human, UniProt Q14626 23-363, limits assumed)
T1 construct: Protein coated on ELISA plates and used in solution for BLI; also called hIL-11Rα; hIL-11R
T1 sequence: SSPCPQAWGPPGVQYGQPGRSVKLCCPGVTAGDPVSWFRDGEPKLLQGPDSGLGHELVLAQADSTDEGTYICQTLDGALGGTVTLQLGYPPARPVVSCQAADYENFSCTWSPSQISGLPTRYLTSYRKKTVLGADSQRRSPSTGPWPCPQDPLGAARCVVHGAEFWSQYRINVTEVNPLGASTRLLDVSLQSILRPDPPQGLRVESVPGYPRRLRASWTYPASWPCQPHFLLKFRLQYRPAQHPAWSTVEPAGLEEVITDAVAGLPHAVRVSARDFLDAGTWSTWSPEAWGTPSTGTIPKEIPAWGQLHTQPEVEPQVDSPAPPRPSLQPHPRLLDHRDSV
Assay: competitive ELISA, IL-11R coated on plate; competitor: biotinylated 8E2 (0.1 µg/mL)
Protocol: Relative binding activity of the antibodies was tested by competitive ELISA using biotinylated mAbs 8E2 or TS7. Antibodies 8E2 and TS7 were biotinylated using sulfo-NHS Biotin (Thermo Fisher) per the manufacturer's instructions. IL-11R was coated onto ELISA plates (Nunc, MaxiSorp) at 2 μg/mL in PBS, and plates were blocked with 2% BSA in PBS. […] Plates were read at 450 nm on an iD5 plate reader (Molecular Devices).
Experimental Readout: IC50

| Binder | Experimental Readout | Result |
| --- | --- | --- |
| mAb2 (antibody, V domains shown, Expressed as human IgG4 (S228P EU)) VH: EVQLLESGGGLVQPGGSLRLSCAASGFTFSWYSMTWVRQAPGKGLEWVSSIVPSGGHTQYADSVKGRFTISRDNSKNTLYLQMNSLRAEDTAVYYCAKGPDWGSFDLWGRGTLVTVSS VL: DIQMTQSPSSLSASVGDRVTITCQASQDINNYLNWYQQKPGKAPKLLIYDASNLQTGVPSRFSGSGSGTDFTFTISSLQPEDIATYYCQQHEFQSPTFGPGTKVDIK | IC50 | > 30 µg/mL |
